From: PubChem BioAssay (NCI)

- System: MDA-N
- assay: NCI tumour cell line growth inhibition, 48 h
Where a SMILES comes first, the peptide text is derived from it. The star is where a group is joined. Cbz = O=C(OCc1ccccc1)*; OBn = c1ccc(CO*)cc1

compound	TGI
CC[C@](C)(O)C(=O)O[C@H]1C(=O)O[C@@H]2C[C@H]3C(C)=CC(=O)[C@@H](O)[C@]3(C)[C@H]3[C@@]4(O)OC[C@]32[C@@H]1[C@@H](C)[C@H]4O	2.29 µM
c1csc(-c2cscc2-c2ccsc2)c1	> 63.3 µM
COc1ccc(/C=C2\OC(=O)C(Cl)=C2c2ccc(OC)cc2)cc1	> 100 µM
COc1ccc(/C=C2/C(C)=NN(c3cccc(Cl)c3)/C2=N/c2nc3ccccc3s2)cc1	41.6 µM
CCOC(=O)C(c1c[nH]c2ccccc12)(c1c[nH]c2ccccc12)c1c[nH]c2ccccc12	> 100 µM
CCc1nnc(CC)n1NCCCC(=O)O	> 100 µM
O=C(O)C1CC2C3CCC2C1C3=O (centres undefined)	> 100 µM
COC(=O)CNC(=O)C(C)NC(=O)C(CC(=O)OCc1ccccc1)NC(=O)OCc1ccccc1 (stereo not drawn) (Cbz-Asp(OBn)-Ala-Gly-OMe; configuration not given here)	> 100 µM
CCOC(=O)/C(N=Nc1ccc(-n2c(C)nc3ccccc3c2=O)cc1)=C(/C)O	> 100 µM

====

- Tested on: HT29 colon
- assay: NCI tumour cell line growth inhibition, 48 h
Quick reference: TGI of the listed items.

molecule	TGI
NS(=O)(=O)c1cc2c(cc1Cl)NC(C(=O)c1cc(=O)c3ccc(O)cc3o1)=NS2(=O)=O	> 100 µM
C[C@@]12C=CC3C/C(=N\C(N)=S)C=C(CCCC4OCCO4)[C@]3(CC1)C2 (stereo not given in full)	25.4 µM
Nc1ncnc2sc(=S)c3c(c12)CCC3	62.8 µM
Cc1ccc(C(=O)Nc2ccc(S(=O)(=O)O)c3cc(S(=O)(=O)O)cc(S(=O)(=O)O)c23)cc1NC(=O)c1cccc(N)c1	> 100 µM
COc1ccc(Br)c2c1CC(C(=O)O)CC2 (stereo not given)	> 100 µM
O=S(=O)([O-])[O-].[Fe+2].c1ccc(/C(=N\Nc2ccccn2)c2ccccn2)cc1	22.7 µM
Cc1ccc2c(c1)C1(C)OC(CC(N)C1O)O2 (stereo not given)	> 100 µM
Nc1cc(=O)[nH]c(SC2=NC(N)CC(O)C2)n1 (stereo not given)	> 100 µM
COc1ccc2c(c1)CC[C@@H]1[C@@H]2CC[C@]2(C)C(=O)C3(CCCCC3)C[C@@H]12	> 100 µM
O=C1c2ccccc2C(=O)N1CC1(C(=O)O)NCCS1(=O)=O (stereo not given)	> 100 µM

====

- Test system: HCT-15 colon
- assay: NCI tumour cell line growth inhibition, 48 h
endpoint: TGI (µM)

compound	endpoint	value-modifier	numeric-readout
c1ccc(Nc2nnc(CSc3nc(-c4ccccc4)c(-c4ccccc4)[nH]3)s2)cc1	TGI	=	49.9
CCC[CH2][Sn]([CH2]CCC)([O]C(C)=O)[O]C(C)=O	TGI	=	3.14
Fc1c(F)c(C(F)(F)F)c(F)c(F)c1N/N=C\c1c[nH]c2ccccc12	TGI	=	12.8
CC(C)=CCCC1(C)C=Cc2c(c(C)cc3c2[nH]c2cc(O)ccc23)O1 (stereo not given)	TGI	>	25
CN(C)c1ccc(-c2c(C#N)c(N)[nH]c(=S)c2C#N)cc1	TGI	>	100

====

- System: SK-MEL-28 melanoma
- assay: NCI tumour cell line growth inhibition, 48 h

molecule	experimental-system	TGI
O=C(O)CSSCC(=O)O	SK-MEL-28 melanoma	> 100 µM
C=C(c1ccccc1)C1ON(C)CCc2cc(OC)c(OC)cc21 (stereo not given)	SK-MEL-28 melanoma	> 100 µM
Cc1ccc(C(=O)Nc2ccc(S(=O)(=O)O)c3cc(S(=O)(=O)O)cc(S(=O)(=O)O)c23)cc1NC(=O)c1cccc(N)c1	SK-MEL-28 melanoma	> 100 µM
CCOC(=O)C(c1c[nH]c2ccccc12)(c1c[nH]c2ccccc12)c1c[nH]c2ccccc12	SK-MEL-28 melanoma	> 100 µM
N=C(N)c1nn(C2OC(CO)C(O)C2O)c2nc[nH]c(=O)c12 (stereo not given)	SK-MEL-28 melanoma	1.55 µM
O=C(c1ccc(Cl)cc1Cl)N(C(=O)N1CCC(c2ccccc2)CC1)c1ccccc1	SK-MEL-28 melanoma	> 100 µM
OCC1OC(n2ccc3c2ncn2ncnc32)C(O)C1O (stereo not given)	SK-MEL-28 melanoma	> 100 µM
C[C@]12CC[C@H]3[C@@H](CCC4=CC(=O)CC[C@@H]43)[C@@H]1CC[C@@H]2OC(=O)N(CCCl)N=O	SK-MEL-28 melanoma	26.1 µM
NC(=O)c1cc2ccccc2oc1=Nc1ccccc1	SK-MEL-28 melanoma	> 100 µM
COc1ccc(Cn2nc(-c3cc(OC)c(OC)c(OC)c3)c3c2CCc2cnoc2-3)cc1OC	SK-MEL-28 melanoma	> 100 µM

====

Quick reference: log10 TGI of the listed items.
- Test system: OVCAR-3 ovarian
- assay: NCI tumour cell line growth inhibition, 48 h
endpoint: log10 TGI (log10 of the value in µM)

compound	log10 TGI
COc1cc2nc(Cl)nc(Nc3cccc(C(=O)/C=C/c4ccccc4)c3)c2cc1OC	1.50
COc1cc2c(cc1OC)-c1ccc3cc4c(cc3c1N(CCN1CCCC1)C2)OCO4	0.35
CCCCc1ccc(Nc2nc(Cl)c3c(ncn3COCCOC(C)=O)n2)cc1	1.64
CCc1ccc(NCc2cc(OC)c(OC)c(OC)c2)cc1	0.12
CN(C)c1ccc2c(NCCCCCCNc3ccnc4cc(N(C)C)ccc34)ccnc2c1	1.44
CC(C)(O)c1ccc(N2CCN(c3nnc(Cc4ccccc4)c4ccccc34)CC2)nc1	1.68
N=C(N)c1nn(C2OC(CO)C(O)C2O)c2nc[nH]c(=O)c12 (stereo not drawn)	0.46
Fc1c(F)c(C(F)(F)F)c(F)c(F)c1N/N=C\c1c[nH]c2ccccc12	0.67
COc1ccc(C(=O)/C=C/c2ccc(Cl)cc2)cc1S(=O)(=O)Nc1c(N)nc(SC)[nH]c1=O	0.60
Cc1occc1C(=S)Nc1ccc(Cl)c(C(=O)OCC(F)(F)F)c1	1.91
C=C1C(=O)O[C@@H]2C1CC(=O)C(C)CC/C=C(\C)CCC[C@H](C)[C@H]2OC(C)=O (stereo partly drawn)	1.34

====

- Test system: M14 melanoma
- assay: NCI tumour cell line growth inhibition, 48 h; in the data active = GI50 below about 0.43 µM; inactive = the rest
Possible outcomes: true (1) (active), false (0) (inactive)

molecule	experimental-system	assigned-category
CC1(C)CCC2(C(=O)OC3OC(CO)C(O)C(O)C3O)CC[C@]3(C)C(=CCC4C5(C)CC[C@H](OC6OC(C(=O)O)C(O)C(O)C6O)C(C)(C)C5CCC43C)C2C1 (stereo not given in full)	M14 melanoma	false (0)
COc1ccc(-c2ccc(-c3ccc(C(=N)N)nc3)s2)cc1	M14 melanoma	false (0)
COc1ccccc1[N-]C(C1=C([O-])c2ccccc2C1=O)c1ccccc1.COc1ccccc1[N-]C(C1=C([O-])c2ccccc2C1=O)c1ccccc1.[Cu+2] (stereo not given)	M14 melanoma	false (0)
CC12CCC=CC1CCC1C2CCC2(C)C(c3ccc(=O)oc3)CCC12O (stereo not given)	M14 melanoma	true (1)
O=C1C(Cl)=C(N/N=c2/[nH][nH]/c(=N/NC3=C(Cl)C(=O)c4ccccc4C3=O)c3ccccc23)C(=O)c2ccccc21	M14 melanoma	false (0)
CN(C)c1ccc2nc3ccc(=[N+](C)C)cc-3oc2c1	M14 melanoma	false (0)
C=CCC(N[C@H](CO)C(C)C)c1cn(C(=O)OCC)c2ccccc12 (stereo not given in full)	M14 melanoma	false (0)
CCN1C(=O)N(CC)C2C1NN=c1s/c(=C3\C(=O)N(C(C)C)c4ccccc43)c(=O)n12 (stereo not given)	M14 melanoma	true (1)
O=C(CCl)c1ccc([N+](=O)[O-])o1	M14 melanoma	false (0)
CN(C)CCNC(=O)c1cccn2c(=O)c3cc4ccccc4cc3nc12	M14 melanoma	true (1)

====

- System: SK-MEL-2 melanoma
- assay: NCI tumour cell line growth inhibition, 48 h
Quick reference: TGI of the listed items.

molecule	TGI
C/C(=N\N)C(CN(C)C)C(c1ccccc1)c1c(O)c2ccccc2oc1=O (stereo not drawn)	> 100 µM
CCOC(=O)NC(C(F)(F)F)(C(F)(F)F)P(=O)(OC(C)C)OC(C)C	> 100 µM
Nc1cc(=O)[nH]c(SC2=NC(N)CC(O)C2)n1 (stereo not drawn)	> 100 µM
COc1ccc(C(=O)/C=C/c2ccc(Cl)cc2)cc1S(=O)(=O)Nc1c(N)nc(SC)[nH]c1=O	27.9 µM
Cc1c2cnccc2c(C)c2c1[nH]c1ccc(O)cc12	> 10 µM
CCOP(=O)(OCC)C1CCCCOC1=O (stereo not drawn)	> 100 µM
COC(=O)[C@H](Cc1ccccc1)NC(=O)NCCN(CCNC(=O)N[C@@H](Cc1ccccc1)C(=O)OC)C(=O)N[C@@H](Cc1ccccc1)C(=O)OC	42.5 µM
C[C@]12CC[C@H]3[C@@H](CCC4=CC(=O)CC[C@@H]43)[C@@H]1CC[C@@H]2OC(=O)N(CCCl)N=O	28.6 µM
